assay: Cytostatic activity against human HM02 cells by SRB assay; assay type: functional; conditions: read-out: LC50 (the source's name)
reportedMetric: CC50

C=C1C[C@H]2[C@@H](CC[C@H]3Cc4nc5c(nc4C[C@@]32C)C[C@@H]2CC[C@H]3C4=C[C@@H]6O[C@]7(CC[C@H](C)CO7)[C@@H](C)[C@@H]6[C@@]4(C)C(=O)C[C@@H]3[C@@]2(C)C5)C2=C[C@@H]3O[C@]4(CC[C@H](C)CO4)[C@@H](C)[C@@H]3[C@@]12C ... > 10 µM

// next item, CC50 requested
Exercise: Query CC50 for C[C@H]1CC[C@@]2(OC1)O[C@H]1C=C3[C@@H]4CC[C@H]5Cc6nc7c(nc6C[C@]5(C)[C@H]4CC(=O)[C@]3(C)[C@H]1[C@@H]2C)C[C@@H]1CC[C@H]2C3=C[C@@H]4O[C@]5(CC[C@H](C)CO5)[C@@H](C)[C@@H]4[C@@]3(C)[C@H](O)C[C@@H]2[C@@]1(C)C7
Solution: > 10 µM

The reported numbers originate from ChEMBL document CHEMBL1140770.
